The entries below come with measured furin cleavage Z-score values attached.
# tested_system: furin, P09958;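 further: purified furin at 1:10 enzyme:substrate in 50 mM HEPES pH 7.5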
# Sequence (P09958 whole entry): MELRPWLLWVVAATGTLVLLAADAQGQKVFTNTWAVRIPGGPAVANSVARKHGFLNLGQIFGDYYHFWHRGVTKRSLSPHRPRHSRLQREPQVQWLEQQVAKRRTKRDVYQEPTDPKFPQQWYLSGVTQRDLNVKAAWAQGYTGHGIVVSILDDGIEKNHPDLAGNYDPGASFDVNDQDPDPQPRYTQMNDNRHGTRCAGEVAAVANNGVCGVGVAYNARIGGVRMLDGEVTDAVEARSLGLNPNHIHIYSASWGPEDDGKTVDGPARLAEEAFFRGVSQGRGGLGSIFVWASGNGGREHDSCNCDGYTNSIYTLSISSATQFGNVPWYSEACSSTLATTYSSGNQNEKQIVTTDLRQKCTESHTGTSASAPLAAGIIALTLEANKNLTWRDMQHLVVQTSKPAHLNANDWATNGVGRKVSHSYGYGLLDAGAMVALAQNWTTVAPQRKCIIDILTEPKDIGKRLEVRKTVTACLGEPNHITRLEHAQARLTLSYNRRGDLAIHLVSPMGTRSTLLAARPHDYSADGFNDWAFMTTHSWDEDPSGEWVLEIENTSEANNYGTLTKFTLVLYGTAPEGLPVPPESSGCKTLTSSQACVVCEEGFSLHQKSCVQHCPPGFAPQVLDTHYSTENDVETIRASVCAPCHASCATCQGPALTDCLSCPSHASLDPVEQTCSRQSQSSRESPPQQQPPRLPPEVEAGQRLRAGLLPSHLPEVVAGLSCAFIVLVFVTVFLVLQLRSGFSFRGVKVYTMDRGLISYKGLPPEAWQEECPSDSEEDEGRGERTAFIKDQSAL
# experiment_description: furin cleavage Z-score vs untreated control; higher = more cleavage, active = 3.5 or more, inactive = 1 or less, 8 variable residues between constant flanks
# condition_details: 30 min
Some of the results follow. The true hit rate is not given.
property_measured: furin cleavage Z-score

>>> number("CALYRLGAVQAGNASASA [HC973]")
0.286
>>> number("CASSNVSVAHAGNASASA [HC1554]")
-0.657
>>> number("CARTSRRKRYAGNASASA [FS-958]")
9.45
>>> number("CAEVIKGGRHAGNASASA [HC852]")
-1.4
>>> number("CAFTEAMTRYAGNASASA [HC1540]")
-0.331
>>> number("CAAYAAQGYKAGNASASA [HC782]")
-0.556
>>> number("CALLRIPQAIAGNASASA [HC329]")
-0.194
